Tested on: Pseudomonas cepacia
Assay: antimicrobial spectrum, agar dilution MIC
Type: cell-based
Conditions: Burkholderia cepacia, strain 2961; BHI agar, 20-24 hours; read-out: MIC
testReadout: MIC (mg/L)

- recordSmiles: "CC[C@H]1OC(=O)[C@H](C)[C@@H](O[C@H]2C[C@@](C)(OC)[C@@H](O)[C@H](C)O2)[C@H](C)[C@@H](O[C@@H]2O[C@H](C)C[C@H](N(C)C)[C@H]2O)[C@](C)(O)C[C@@H](C)C(=O)[C@H](C)[C@@H](O)[C@]1(C)O"
  measured: 200
- recordSmiles: "CC[C@H]1OC(=O)[C@H](C)[C@@H](O[C@H]2C[C@@](C)(OC)[C@@H](O)[C@H](C)O2)[C@H](C)[C@@H](O[C@@H]2O[C@H](C)C[C@H](N(C)C)[C@H]2O)[C@](C)(OC)C[C@@H](C)C(=O)[C@H](C)[C@H]2N(C)C(=O)O[C@]12C"
  measured: 100
- recordSmiles: "CC[C@H]1OC(=O)[C@H](C)[C@@H](O[C@H]2C[C@@](C)(OC)[C@@H](O)[C@H](C)O2)[C@H](C)[C@@H](O[C@@H]2O[C@H](C)C[C@H](N(C)C)[C@H]2O)[C@](C)(OC)C[C@@H](C)C(=O)[C@H](C)[C@H]2NC(=O)O[C@@]21C"
  measured: 25

* * *

Tested on: Pseudomonas aeruginosa
Experiment: antimicrobial spectrum, agar dilution MIC
Format: cell-based
Details: Pseudomonas aeruginosa, strain K799/61; BHI agar, 20-24 hours
testReadout: MIC (µg/mL)

- molecule: "CC[C@H]1OC(=O)[C@H](C)[C@@H](O[C@H]2C[C@@](C)(OC)[C@@H](O)[C@H](C)O2)[C@H](C)[C@@H](O[C@@H]2O[C@H](C)C[C@H](N(C)C)[C@H]2O)[C@](C)(OC)C[C@@H](C)C(=O)[C@H](C)[C@H]2N(C3CC3)C(=O)O[C@]12C [Example 5]"
  studySystem: "Pseudomonas aeruginosa"
  measured: 6.2
- molecule: "CC[C@H]1OC(=O)[C@H](C)[C@@H](O[C@H]2C[C@@](C)(OC)[C@@H](O)[C@H](C)O2)[C@H](C)[C@@H](O[C@@H]2O[C@H](C)C[C@H](N(C)C)[C@H]2O)[C@](C)(O)C[C@@H](C)C(=O)[C@H](C)[C@@H](O)[C@]1(C)O [Erythromycin A]"
  studySystem: "Pseudomonas aeruginosa"
  measured: 1.56
- molecule: "CC[C@H]1OC(=O)[C@H](C)[C@@H](O[C@H]2C[C@@](C)(OC)[C@@H](O)[C@H](C)O2)[C@H](C)[C@@H](O[C@@H]2O[C@H](C)C[C@H](N(C)C)[C@H]2O)[C@](C)(OC)C[C@@H](C)C(=O)[C@H](C)[C@H]2N(Cc3ccccc3)C(=O)O[C@]12C [Example 3]"
  studySystem: "Pseudomonas aeruginosa"
  measured: 3.1
- molecule: "CC[C@H]1OC(=O)[C@H](C)[C@@H](O[C@H]2C[C@@](C)(OC)[C@@H](O)[C@H](C)O2)[C@H](C)[C@@H](O[C@@H]2O[C@H](C)C[C@H](N(C)C)[C@H]2O)[C@](C)(OC)C[C@@H](C)C(=O)[C@H](C)[C@H]2NC(=O)O[C@@]21C [Example 2]"
  studySystem: "Pseudomonas aeruginosa"
  measured: 1.56

* * *

Tested on: Staph. aureus
Assay: antimicrobial spectrum, agar dilution MIC
Assay type: cell-based
Conditions: Staphylococcus aureus, ATCC6538P, strain ATCC 6538P; BHI agar, 20-24 hours
testReadout: MIC (µg/mL)

- compound: "CC[C@H]1OC(=O)[C@H](C)[C@@H](O[C@H]2C[C@@](C)(OC)[C@@H](O)[C@H](C)O2)[C@H](C)[C@@H](O[C@@H]2O[C@H](C)C[C@H](N(C)C)[C@H]2O)[C@](C)(OC)C[C@@H](C)C(=O)[C@H](C)[C@H]2N(C3CC3)C(=O)O[C@]12C [Example 5]"
  unitName: "µg/mL"
  measured: 0.39
- compound: "CC[C@H]1OC(=O)[C@H](C)[C@@H](O[C@H]2C[C@@](C)(OC)[C@@H](O)[C@H](C)O2)[C@H](C)[C@@H](O[C@@H]2O[C@H](C)C[C@H](N(C)C)[C@H]2O)[C@](C)(OC)C[C@@H](C)C(=O)[C@H](C)[C@H]2NC(=O)O[C@@]21C [Example 2]"
  unitName: "µg/mL"
  measured: 0.1
- compound: "CC[C@H]1OC(=O)[C@H](C)[C@@H](O[C@H]2C[C@@](C)(OC)[C@@H](O)[C@H](C)O2)[C@H](C)[C@@H](O[C@@H]2O[C@H](C)C[C@H](N(C)C)[C@H]2O)[C@](C)(OC)C[C@@H](C)C(=O)[C@H](C)[C@H]2N(C)C(=O)O[C@]12C [Example 4]"
  unitName: "µg/mL"
  measured: 0.1
- compound: "CC[C@H]1OC(=O)[C@H](C)[C@@H](O[C@H]2C[C@@](C)(OC)[C@@H](O)[C@H](C)O2)[C@H](C)[C@@H](O[C@@H]2O[C@H](C)C[C@H](N(C)C)[C@H]2O)[C@](C)(OC)C[C@@H](C)C(=O)[C@H](C)[C@H]2N(Cc3ccccc3)C(=O)O[C@]12C [Example 3]"
  unitName: "µg/mL"
  measured: 0.39

* * *

Tested on: Staph. aureus
Experiment: antimicrobial spectrum, agar dilution MIC
Format: cell-based
Details: Staphylococcus aureus, strain A5177; BHI agar, 20-24 hours

- recordSmiles: "CC[C@H]1OC(=O)[C@H](C)[C@@H](O[C@H]2C[C@@](C)(OC)[C@@H](O)[C@H](C)O2)[C@H](C)[C@@H](O[C@@H]2O[C@H](C)C[C@H](N(C)C)[C@H]2O)[C@](C)(OC)C[C@@H](C)C(=O)[C@H](C)[C@H]2NC(=O)O[C@@]21C"
  MIC / µg/mL: 0.39
- recordSmiles: "CC[C@H]1OC(=O)[C@H](C)[C@@H](O[C@H]2C[C@@](C)(OC)[C@@H](O)[C@H](C)O2)[C@H](C)[C@@H](O[C@@H]2O[C@H](C)C[C@H](N(C)C)[C@H]2O)[C@](C)(OC)C[C@@H](C)C(=O)[C@H](C)[C@H]2N(C3CC3)C(=O)O[C@]12C"
  MIC / µg/mL: 1.56
- recordSmiles: "CC[C@H]1OC(=O)[C@H](C)[C@@H](O[C@H]2C[C@@](C)(OC)[C@@H](O)[C@H](C)O2)[C@H](C)[C@@H](O[C@@H]2O[C@H](C)C[C@H](N(C)C)[C@H]2O)[C@](C)(OC)C[C@@H](C)C(=O)[C@H](C)[C@H]2N(Cc3ccccc3)C(=O)O[C@]12C"
  MIC / µg/mL: 0.78
- recordSmiles: "CC[C@H]1OC(=O)[C@H](C)[C@@H](O[C@H]2C[C@@](C)(OC)[C@@H](O)[C@H](C)O2)[C@H](C)[C@@H](O[C@@H]2O[C@H](C)C[C@H](N(C)C)[C@H]2O)[C@](C)(OC)C[C@@H](C)C(=O)[C@H](C)[C@H]2N(C)C(=O)O[C@]12C"
  MIC / µg/mL: 0.39
